Source: patent CN107840889A

Target: T1, CD123-his-biotin抗原 (Homo sapiens (Human), UniProt P26951 19-305, biotin label (site not stated))
T1 construct: Bought from SinoBiological and biotin-labelled; also called CD123-Biotin; CD123抗原; not shown: his tag
T1 sequence: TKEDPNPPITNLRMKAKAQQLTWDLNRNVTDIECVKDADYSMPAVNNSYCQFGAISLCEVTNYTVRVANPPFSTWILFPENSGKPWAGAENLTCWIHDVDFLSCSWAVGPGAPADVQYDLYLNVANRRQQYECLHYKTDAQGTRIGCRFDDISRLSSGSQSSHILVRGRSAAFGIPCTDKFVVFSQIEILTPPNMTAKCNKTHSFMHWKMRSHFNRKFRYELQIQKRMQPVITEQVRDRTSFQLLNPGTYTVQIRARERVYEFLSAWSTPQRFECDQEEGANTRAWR
Assay: BLI (Octet RED96), CD123-Biotin on AR2G sensor, scFv periplasmic extract as analyte
MEASURED ATTRIBUTE: koff (s⁻¹)
Answer with a number only, understood to be in s⁻¹.

Please review the entries below; each comes with its answer.
INSERT INTO measurements (binder, measured_attribute, value_measured) VALUES
  ('2C5 (scFv, V domains shown) VH: QVQLQQPGAELVRPGASVKLSCKASGYTFTQYWMNWVKQRPDQGLEWIGRIDPYDSETHYNQKFKDKAILTVDKSSSTAYMQLSSLTSEDSAVYYCARSQVSDYWGQGTTLTVSS VL: DVQITQSPSYLAASPGETITINCRASKSISKDLAWYQEKPGKTNKLLIYSGSTLQSGIPSRFSGSGSGTDFTLTISSLEPEDFAMYYCQQHNKYPYTFGGGTKLEIK', 'koff', 0.000502),
  ('6G9 (scFv, V domains shown) VH: QVQLQQPGAELVRPGASVKLSCKASGYTFTSYWMNWVKQRPDQGLEWIGRIDPYDSETHYNQKFKDKAILTVDKSSSTAYMQLSSLTSEDSAVYYCARGNWDDYWGQGTTLTVSS VL: DVQITQSPSYLAASPGETITINCCASNSINKDLIWYQEKPGKTNKLLIYSGSTLQSGIPSRFSGSGSGTDFTLTISSLEPEDFAMYYCQQHNKYPYTFGGGTKLEIK', 'koff', 0.000318);

What koff value was documented for this binder, 8A7 (scFv, V domains shown, 31 is used here; also called 抗体8A7) VH: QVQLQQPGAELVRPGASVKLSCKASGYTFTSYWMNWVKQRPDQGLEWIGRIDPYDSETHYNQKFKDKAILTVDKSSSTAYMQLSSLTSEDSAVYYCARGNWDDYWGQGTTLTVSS VL: DVQITQSPSYLAASPGETITINCRASKSISKDLAWYQEKPGKTNKLLIYSGSTLQSGIPSRFSGSGSGTDFTLTISSLEPEDFAMYYCQQTNRYPYTFGGGTKLEIK ? 0.000178
